assay: soluble on expression in E. coli; label from the status in PepcDB or PDB records

POLYMER SEQUENCE	soluble on expression in E. coli
MSPAPELQIPTVTRQSDGTKIHEISGHKFKAVGLAQPTFCSFCSKFIYGVGKQGYKCLGCETVVHKRCHALITARCTFGPSSRAPVPAETTNLKTRRSRSASEEPPSNTHHFNKHFFTRPTFCDHCGSMLYGLTKQGVQCTDCHANVHFRCQEKVLRNCGIQCQ	not soluble
MLKPETIHISGPAGILETIHIPSEQVPARGVAVINHPNPLQGGTNTNKVIQTAAKALSKLGFHCYLPNLRGVGGSGGTHDYGRGETQDCLAVIDYARAQHPEAPEFALSGFSFGGYVATFAAQARTPDLLLLIGAAVCHYTDRPEPSAVPNVAKTLMIHGAEDEVVEIGKALKWAEPQDLPVITIAGSTHFFHGKLIVLRDTILRFAPVCLNG	not soluble
